Below, each entry is listed with its recorded IC50.
testTarget: CDK2/Cyclin E1 complex (Homo sapiens)
assayRemarks: CDK2 kinase inhibition assay (Caliper/LabChip EZ Reader)
Assay type: biochemical
experimentalContext: CDK2/Cyclin E1 0.5 nM, ATP 2 mM, 35 min at 27° C.
Method: Compounds of the invention were assayed for inhibition of CDK7, CDK9, CDK12, and CDK2 activity at Biortus Biosciences (Jiangyin, Jiangsu Province, P.R. of China) using kinase assays for each CDK developed with a Caliper/LabChip EZ Reader (Perkin Elmer, Waltham, Mass.). […]

Past entries and their recorded results:
1. FC(F)(F)c1cnc(N[C@@H]2CNCc3ccccc32)nc1-c1c[nH]c2ccccc12 = ≥ 5 µM
2. Clc1cnc(NC2CCCNC2)nc1-c1c[nH]c2ccccc12 (stereo not shown) [Compound 101] = 0.2 to 5 µM
3. CCc1cnc(N[C@H]2CCCNC2)nc1-c1n[nH]c2c(F)cccc12 = 0.2 to 5 µM

Now for a further compound.
Query: Dear colleague, I am looking for the recorded IC50 of the following compound: O=C(C1CCC(Nc2ncc(C(F)(F)F)c(-c3c[nH]c4ccccc34)n2)CN1)N1CCCC1 (stereo not shown)
Result: 0.2 to 5 µM

* * *

testTarget: CDK9/Cyclin T1 complex (Homo sapiens)
Sequence (P50750 whole entry): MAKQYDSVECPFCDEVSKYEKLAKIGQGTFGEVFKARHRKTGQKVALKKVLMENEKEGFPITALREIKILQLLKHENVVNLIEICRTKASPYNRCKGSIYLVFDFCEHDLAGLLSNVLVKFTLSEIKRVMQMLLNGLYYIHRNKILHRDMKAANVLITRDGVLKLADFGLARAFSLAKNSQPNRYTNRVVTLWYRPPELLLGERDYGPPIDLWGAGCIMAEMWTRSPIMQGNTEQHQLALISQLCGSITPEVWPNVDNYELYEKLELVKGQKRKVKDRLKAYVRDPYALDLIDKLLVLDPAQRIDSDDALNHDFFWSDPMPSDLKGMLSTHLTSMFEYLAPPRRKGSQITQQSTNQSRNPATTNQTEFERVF
Sequence (O60563 whole entry partner): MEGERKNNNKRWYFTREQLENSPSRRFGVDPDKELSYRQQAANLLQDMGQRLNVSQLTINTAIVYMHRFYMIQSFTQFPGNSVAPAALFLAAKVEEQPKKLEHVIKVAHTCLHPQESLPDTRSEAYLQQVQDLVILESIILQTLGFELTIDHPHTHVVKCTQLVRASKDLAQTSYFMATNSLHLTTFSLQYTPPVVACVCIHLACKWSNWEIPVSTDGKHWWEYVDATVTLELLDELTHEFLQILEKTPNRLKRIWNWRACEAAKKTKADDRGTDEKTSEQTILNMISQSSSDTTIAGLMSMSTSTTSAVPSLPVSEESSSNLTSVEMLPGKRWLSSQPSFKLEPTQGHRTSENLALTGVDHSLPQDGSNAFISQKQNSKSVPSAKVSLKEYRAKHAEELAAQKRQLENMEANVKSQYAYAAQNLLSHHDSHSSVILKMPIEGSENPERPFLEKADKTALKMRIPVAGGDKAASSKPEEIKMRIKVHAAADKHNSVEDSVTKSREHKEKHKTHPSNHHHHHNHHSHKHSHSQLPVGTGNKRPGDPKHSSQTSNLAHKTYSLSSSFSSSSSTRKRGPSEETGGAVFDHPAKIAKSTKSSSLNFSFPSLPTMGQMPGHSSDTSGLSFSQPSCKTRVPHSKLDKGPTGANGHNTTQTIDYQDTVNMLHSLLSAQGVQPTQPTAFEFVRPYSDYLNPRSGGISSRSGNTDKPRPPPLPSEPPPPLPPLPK
assayRemarks: CDK9 kinase inhibition assay (Caliper/LabChip EZ Reader)
experimentalContext: CDK9/Cyclin T1 8 nM, ATP 2 mM, 15 min at 27° C.
pIC50: −log10 of the molar value.
Below, each entry is listed with its recorded pIC50.

Past entries and their recorded results:
1. Cn1cc(-c2ccc3c(-c4nc(NC5CCCNC5)ncc4C(F)(F)F)c[nH]c3c2)cn1 (centres unmarked) = 5.30 to 6.70
2. CC(C)S(=O)(=O)c1ccc2c(-c3nc(NC4CCCNC4)ncc3C(F)(F)F)c[nH]c2c1 (centres unmarked) = 5.30 to 6.70
3. Fc1cc2[nH]nc(-c3nc(NC4CCCNC4)ncc3C(F)(F)F)c2cc1F (centres unmarked) = 5.30 to 6.70
4. CCc1cnc(NC2CCCNC2)nc1-c1c[nH]c2cc(C#N)ccc12 (centres unmarked) = ≤ 5.30

Query: Dear colleague, I am looking for the recorded pIC50 of the following compound: FC(F)(F)c1cnc(NC2CCCNC2)nc1-c1c[nH]c2cc(-c3ccc4c(c3)OCCO4)ccc12 (centres unmarked)
Result: ≤ 5.30

Query: Dear colleague, I am looking for the recorded pIC50 of the following compound: CC(O)c1cnc(NC2CCCNC2)nc1-c1c[nH]c2ccccc12 (centres unmarked) [Compound 247]
Result: ≤ 5.30

Query: Dear colleague, I am looking for the recorded pIC50 of the following compound: CCC1CCC(Nc2ncc(C(F)(F)F)c(-c3c[nH]c4ccccc34)n2)CN1 (centres unmarked) [Compound 217]
Result: 5.30 to 6.70

Query: Dear colleague, I am looking for the recorded pIC50 of the following compound: FC(F)(F)c1cnc(NC2CCCNC2)nc1-c1c[nH]c2cc(-c3cccnc3)ccc12 (centres unmarked)
Result: 5.30 to 6.70

* * *

Below, each entry is listed with its recorded pIC50.
testTarget: CDK12 (aa686-1082)/Cyclin K complex (Homo sapiens, UniProt Q9NYV4)
Construct: CDK12 (aa686-1082)/Cyclin K complex
Sequence (Q9NYV4 686-1082): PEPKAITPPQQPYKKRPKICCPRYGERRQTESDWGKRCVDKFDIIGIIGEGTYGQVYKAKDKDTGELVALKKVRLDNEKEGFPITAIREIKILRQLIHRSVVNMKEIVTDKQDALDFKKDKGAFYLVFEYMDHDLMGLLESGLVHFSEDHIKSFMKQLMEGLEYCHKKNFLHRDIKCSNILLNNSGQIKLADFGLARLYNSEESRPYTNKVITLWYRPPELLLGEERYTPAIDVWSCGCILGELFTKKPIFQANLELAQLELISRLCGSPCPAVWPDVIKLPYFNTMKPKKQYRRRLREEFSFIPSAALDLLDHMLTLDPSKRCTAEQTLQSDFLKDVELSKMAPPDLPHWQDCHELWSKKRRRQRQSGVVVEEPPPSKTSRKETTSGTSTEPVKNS
Sequence (O75909 whole entry partner, the tested form may be a part): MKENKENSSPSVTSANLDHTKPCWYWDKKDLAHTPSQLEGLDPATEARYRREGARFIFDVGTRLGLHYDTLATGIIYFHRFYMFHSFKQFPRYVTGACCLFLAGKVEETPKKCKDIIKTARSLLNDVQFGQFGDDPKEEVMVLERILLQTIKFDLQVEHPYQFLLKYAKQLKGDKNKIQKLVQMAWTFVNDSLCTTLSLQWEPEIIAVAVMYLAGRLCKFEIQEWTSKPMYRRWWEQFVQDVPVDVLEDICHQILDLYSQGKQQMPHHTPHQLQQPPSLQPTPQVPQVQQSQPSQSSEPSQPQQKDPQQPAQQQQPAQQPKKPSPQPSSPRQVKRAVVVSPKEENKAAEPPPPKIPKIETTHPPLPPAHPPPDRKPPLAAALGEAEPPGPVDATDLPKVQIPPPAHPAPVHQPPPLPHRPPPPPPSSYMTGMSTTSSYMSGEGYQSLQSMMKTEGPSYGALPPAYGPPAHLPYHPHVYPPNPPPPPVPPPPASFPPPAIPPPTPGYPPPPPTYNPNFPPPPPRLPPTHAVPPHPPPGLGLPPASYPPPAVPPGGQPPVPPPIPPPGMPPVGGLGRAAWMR
assayRemarks: CDK12 kinase inhibition assay (Caliper/LabChip EZ Reader)
experimentalContext: CDK12 (aa686-1082)/Cyclin K 50 nM, ATP 2 mM, 3 hr at 27° C.
pIC50: −log10 of the molar value.

Past entries and their recorded results:
1) CNC(=O)C1CNCC(Nc2ncc(C(F)(F)F)c(-c3c[nH]c4ccccc34)n2)C1 (stereo not shown) [Compound 253] = 6.70 to 7.70
2) NS(=O)(=O)c1cccc(-c2ccc3c(-c4nc(NC5CCCNC5)ncc4C(F)(F)F)c[nH]c3c2)c1 (stereo not shown) [Compound 326] = 5.30 to 6.70
3) CC(C)N1CCCC(Nc2ncc(Cl)c(-c3c[nH]c4ccccc34)n2)C1 (stereo not shown) [Compound 148] = 5.30 to 6.70

Now for a further molecule.
Query: Request: pIC50, test system CDK12 (aa686-1082)/Cyclin K complex (Homo sapiens, UniProt Q9NYV4), entry Ic1cnc(NC2CCCNC2)nc1-c1c[nH]c2ccccc12 (stereo not shown) [Compound 147]
Result: 5.30 to 6.70
